# TARGET SYSTEM: NAMPT (Homo sapiens (Human), UniProt P43490)
# Sequence (P43490 whole entry): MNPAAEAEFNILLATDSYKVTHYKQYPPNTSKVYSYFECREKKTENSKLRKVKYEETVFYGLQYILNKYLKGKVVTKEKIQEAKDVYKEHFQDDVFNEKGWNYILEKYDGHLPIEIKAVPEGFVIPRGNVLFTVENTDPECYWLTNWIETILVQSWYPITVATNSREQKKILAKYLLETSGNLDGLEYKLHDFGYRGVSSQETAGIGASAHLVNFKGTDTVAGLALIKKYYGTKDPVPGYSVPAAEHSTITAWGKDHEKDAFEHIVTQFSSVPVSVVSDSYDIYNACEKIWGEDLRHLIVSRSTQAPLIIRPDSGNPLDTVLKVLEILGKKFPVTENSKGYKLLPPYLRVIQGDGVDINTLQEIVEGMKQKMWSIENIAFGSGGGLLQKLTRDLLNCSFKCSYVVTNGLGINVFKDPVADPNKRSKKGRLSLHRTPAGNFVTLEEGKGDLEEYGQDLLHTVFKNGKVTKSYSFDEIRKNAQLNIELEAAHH
# ASSAY NOTES: Biochemical Inhibition Assay (NAMPT enzymatic reaction, NMN quantified by mass spectrometry)
# TEST SETTINGS: 33 nM recombinant His-tagged NAMPT, 1 μM NAM, 30 min at rt
Please go through the items and note down their IC50.
Give bare numbers, in nM.

COMPOUND | OBS VALUE
O=C(NCc1ccc(S(=O)(=O)C2CCN(C3COC3)CC2)cn1)c1cc2ccncc2s1 | 25.9

Fill in IC50 for each of the 2 compounds listed.
1. O=C(NCc1ccc(S(=O)(=O)c2cc(F)cc(F)c2)cn1)N1Cc2ccncc2C1
2. N#Cc1cccc(S(=O)(=O)c2ccc(CNC(=O)c3cnc4[nH]ncc4c3)nc2)c1

Marked response:
[17.3, 452]

Exam item: Fill in: IC50 of `O=C(NCc1ccc(S(=O)(=O)c2ccccc2)cn1)c1cc2ccncc2s1` is ___
Marked response: 125
